Target: T1, CD22 on cynomolgus monkey peripheral blood B cells (cynomolgus monkey (Macaca fascicularis))
T1 construct: whole, on cells; also called cynomolgus monkey B cells
Experiment: FACS, cynomolgus PBMC, CD20+ B cells, antibody 1 nM
Kindly state Proportion of chimeric antibody positive cells to B cells (%) for each of the entries shown.

# input Recorded Proportion of chimeric antibody positive cells to B cells (%) for F1.224.1 (antibody, human IgG1, kappa, V domains shown, human-murine chimeric IgG1 kappa; VL name legible) VH: EVLLHQSGPELVKPGASVKISCKASGYTFTDFNMDWVRQRHGQSLEWIGDVNPNNGGTIYNQKFKGKATLTVDKSSSTVYMDLRSLTSDDTAVYYCVRLGTSDYGEAWFISWGQGTVVTVSA VL: DIVLTQSPASLAVSLGQRATISCRASQSVSTPRYSFMHWYQQKPGQPPKLLIKYASNLESGFPARFTGSGSGTDFTLNIHPVEEEDTAAYYCQQSWAIPWTFGGGTKLEIKR , please?
# output 83%

# input Would you mind doing F1.62.10 (antibody, human IgG1, kappa, V domains shown, human-murine chimeric IgG1 kappa) VH: QVQLQQSGPELVKPGASVKISCKASGYEFSSIWMNWVKQRPGEGLEWIGRIFPGDGEINYNEKFKGKATLTADRSSTTAYMQLSSLTSEDSAVYFCAGWRIYYGTYGAMDYWGQGTSVTVSS VL: DIQMTQITSSLSASLGDRVTISCRASQDIGNYLNWYQQKPDGTVKLLIYYTSRLHSGVPSRFSGSGSRTDYSLTISNLQQEDIATYFCQQGNTLPWTFGGGTKLEIKR as well?
# output 17%

# input Would you mind doing F2.104.10 (antibody, human IgG1, lambda, V domains shown, human-murine chimeric IgG1 lambda) VH: EVQLVESGGGFVKPGGSLKLSCAASGFTFSDYGMNWFRQAPEKGLEWVAYISRGSHTIYYADTVKGRFTISRDNAENTLFLQMTSLRSNDTAMYYCVRMAGYYAMDYWGQGTSLTVSS VL: QLVLTQSSSASFSLGASAKLTCTLSSQHSSYIIEWYQQQPLKPPKYVMEVKKDGSHSTGDGIPDRFSGSSSGADRYLSISNIQSEDEAIYICGVGDTIKEQFVYVFGGGTKVTVLG as well?
# output 19%
